Values were extracted from patent US20100143349A1.

Below, each entry is listed with its recorded IC50.
# SYSTEM TESTED: T1, hRAGE-Fc (human, UniProt Q15109 23-342, biotin label in the selections and HTRF assays)
# T1 construct: extracellular domain; also called biotin labeled hRAGE-Fc; Biotin-labeled RAGE-Fc; not shown: Fc part
# T1 sequence (Q15109 23-342): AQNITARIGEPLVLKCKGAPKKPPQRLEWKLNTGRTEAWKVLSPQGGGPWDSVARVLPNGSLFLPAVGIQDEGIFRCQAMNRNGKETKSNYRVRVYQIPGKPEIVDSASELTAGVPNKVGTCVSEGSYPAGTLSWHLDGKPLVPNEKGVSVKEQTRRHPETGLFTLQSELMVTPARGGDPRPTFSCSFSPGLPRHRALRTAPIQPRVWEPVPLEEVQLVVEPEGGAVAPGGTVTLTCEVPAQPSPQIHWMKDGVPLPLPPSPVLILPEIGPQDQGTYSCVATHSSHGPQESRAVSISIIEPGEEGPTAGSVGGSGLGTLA
# ASSAY COMMENT: HTRF competition, scFv vs labelled parental XT-M4 (competitor) on biotin hRAGE-Fc
MEASUREMENT NAME: IC50 (nM)

BINDER | MEASUREMENT NAME | SCALE UNIT | MEASURED VALUE
parental XT-M4 scFv (VH 2.0, VL 2.11), VL-VH format (scFv, also called M4WT) scFv: DIQMTQSPSSLSASVGDRVTITCRASQDVGIYVNWFQQKPGKAPRRLIYRATNLADGVPSRFSGSRSGTDFTLTISSLQPEDFATYYCLEFDEHPLTFGGGTKVEIKDGGGSGGGGSGGGGSSEVQLVESGGGLVQPGGSLRLSCAASGFTFNNYWMTWVRQAPGKGLEWVASIDNSGDNTYYPDSVKDRFTISRDNAKNSLYLQMNSLRAEDTAVYYCARGGDITTGFDYWGQGTLVTVSS | IC50 | nM | 33
S1R5A1_10G10 scFv (scFv) scFv: DIQMTQSPSSLSASVGDRVTITCRASQDVGIYVNWFQQKPGKAPRRLIYRATNLADGVPSRFSGSRSGTDFTLTISSLQPEDFATYYCLEFDEHPLTFGGGTRVEIKDGGGSGGGGSGGGGSSEVQLVESGGGLVQPGGSLRLSCAASGFTFNNYWMSWVRQAPGKGLEWVASIDNSGENTYYPDSVKDRFTISRDNAKNSLYLQMNSLRAEDTAVYYCARGGDITTGFDYWGQGTLVTVSS | IC50 | nM | 16.3
S2R4A3_10D8 scFv (scFv, also called 10D8 (b)) scFv: DIQMTQSPSSLSASVGDKVTITCRASQDVGFYVNWFQQKPGKAPRRLIYRATNLADGVPSRFSGSRSGTDFTLTISSLQPEDFATYYCLEFDEHPLTFGGGTKVEIKDGGGSGNGGSGGGGSSEVQLVESGGELVQPGGSLRLSCAASGFTFNNYWMTWVRQAPGKGLEWVASIDNSGDNTYYPDSVKDRFTISRDNAKNSLYLQMNSLRAEDTAVYYCARGGDITTGFDYWGQGTLVTVSS | IC50 | nM | 2.6
